# system_under_test: Recombinant human his-tagged IGF R extracellular domain protein (human) (UniProt P08069)
# assay_overview: SPR, Ab captured via anti-huIgG Fc, pH 7.4
Consider the following binders and their measured kon readings.
Response body: numeric value in M⁻¹ s⁻¹, unit text excluded.

Here are 2 binders together with their reported answers.
binder: VRDN-02010 (antibody, V domains shown) VH: QVQLQESGPGLVKPSETLSLTCTVSGYSITGGYLHNWIRQPPGKGLEWIGYISYDGTNNYKPSLKDRVTISRDTSKNQFSLKLSSVTAADTAVYYCARYGRVFFDYWGQGTLVTVSS VL: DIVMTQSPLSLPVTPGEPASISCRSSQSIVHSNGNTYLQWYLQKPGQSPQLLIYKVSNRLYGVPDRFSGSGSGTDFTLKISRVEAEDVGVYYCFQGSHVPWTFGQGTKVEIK
units_text: M⁻¹ s⁻¹
kon: 447000
//
binder: VRDN-02053 (antibody, V domains shown) VH: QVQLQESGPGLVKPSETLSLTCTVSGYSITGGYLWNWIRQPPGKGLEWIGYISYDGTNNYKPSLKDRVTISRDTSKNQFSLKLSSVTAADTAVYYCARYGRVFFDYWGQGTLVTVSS VL: DIVMTQSPLSLPVTPGEPASISCRSSQSIVHSNGNTYLQWYLQKPGQSPQLLIYKVSNRLYGVPDRFSGSGSGTDFTLKISRVEAEDVGVYYCFQHSHVPWTFGQGTKVEIK
units_text: M⁻¹ s⁻¹
kon: 338000

For the binder shown here, VRDN-02018 (antibody, V domains shown) VH: QVQLQESGPGLVKPSETLSLTCTVSGYSITGGYLWNWIRQPPGKGLEWIGYISYDGHNNYKPSLKDRVTISRDTSKNQFSLKLSSVTAADTAVYYCARYGRVFFDYWGQGTLVTVSS VL: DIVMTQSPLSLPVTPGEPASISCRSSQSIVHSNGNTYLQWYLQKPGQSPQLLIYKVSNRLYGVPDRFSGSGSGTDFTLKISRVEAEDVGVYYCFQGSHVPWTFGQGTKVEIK , give the reported kon.
106000
